Target: human sphingosine-1-phosphate receptor 1 (S1P1) (Homo sapiens (Human))
Sequence (P21453 whole entry, looked up): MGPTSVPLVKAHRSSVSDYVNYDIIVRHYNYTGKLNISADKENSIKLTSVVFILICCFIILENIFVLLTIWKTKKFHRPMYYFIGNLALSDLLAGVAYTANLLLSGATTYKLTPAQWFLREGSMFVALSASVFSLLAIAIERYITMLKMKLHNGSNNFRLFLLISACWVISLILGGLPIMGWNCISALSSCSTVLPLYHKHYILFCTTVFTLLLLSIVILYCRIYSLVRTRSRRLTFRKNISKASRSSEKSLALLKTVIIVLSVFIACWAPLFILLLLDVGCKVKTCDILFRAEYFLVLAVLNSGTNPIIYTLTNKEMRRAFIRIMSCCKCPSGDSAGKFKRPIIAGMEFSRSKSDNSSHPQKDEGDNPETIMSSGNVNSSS
Sequence (P32121 whole entry partner, looked up): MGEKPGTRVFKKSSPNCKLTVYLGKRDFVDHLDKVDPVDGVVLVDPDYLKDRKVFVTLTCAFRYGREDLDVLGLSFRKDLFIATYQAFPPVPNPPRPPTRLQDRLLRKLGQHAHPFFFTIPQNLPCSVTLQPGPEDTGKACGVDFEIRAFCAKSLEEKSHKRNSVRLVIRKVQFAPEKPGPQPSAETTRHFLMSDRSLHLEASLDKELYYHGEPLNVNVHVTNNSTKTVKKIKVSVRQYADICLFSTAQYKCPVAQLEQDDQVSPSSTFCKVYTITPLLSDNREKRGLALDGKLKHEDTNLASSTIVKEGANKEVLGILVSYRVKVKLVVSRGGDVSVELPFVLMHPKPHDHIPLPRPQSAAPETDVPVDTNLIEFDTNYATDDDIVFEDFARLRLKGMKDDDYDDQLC
Assay: β-Arrestin2 recruitment assay (PathHunter), S1P1 CHO-K1 cells
Format: cell-based
Details: β-arrestin2 recruitment, S1P1 CHO-K1 cells
QUANTITY_NAME: hS1P1 B-arrestin2 pEC50

{"MOLECULAR_STRING": "Cc1ccccc1-c1noc(-c2ccc3c(c2)nnn3CC(C)(C)O)n1", "hS1P1 B-arrestin2 pEC50": ">5"}
{"MOLECULAR_STRING": "CCC1(CC)CC(=O)c2cc(-c3nc(-c4cncc(OC)c4)no3)ccc2O1", "hS1P1 B-arrestin2 pEC50": "<5"}

The compound CCC1(CC)CC(=O)c2cc(-c3nc(-c4ccncc4O)no3)ccc2O1 on human sphingosine-1-phosphate receptor 1 (S1P1) (Homo sapiens (Human)): hS1P1 B-arrestin2 pEC50 was <5

The compound CCC1(CC)CC(=O)c2cc(-c3nc(-c4ccc(NS(C)(=O)=O)cc4OC)no3)ccc2O1 on human sphingosine-1-phosphate receptor 1 (S1P1) (Homo sapiens (Human)): hS1P1 B-arrestin2 pEC50 was >5

The compound CC(C)n1nnc2cc(-c3noc(-c4ccc(C5CCCCC5)cc4)n3)ccc21 on human sphingosine-1-phosphate receptor 1 (S1P1) (Homo sapiens (Human)): hS1P1 B-arrestin2 pEC50 was <5

The compound CCC1(CC)CC(=O)c2cc(-c3nc(-c4ccc5nonc5c4)no3)ccc2O1 on human sphingosine-1-phosphate receptor 1 (S1P1) (Homo sapiens (Human)): hS1P1 B-arrestin2 pEC50 was <5

The compound CC(C)n1nnc2cc(-c3nc4c(o3)Cc3ccccc3-4)ccc21 on human sphingosine-1-phosphate receptor 1 (S1P1) (Homo sapiens (Human)): hS1P1 B-arrestin2 pEC50 was >5

The compound Cc1nc(-c2ccccc2)oc1-c1cnc2c(c1)CC(=O)N2 on human sphingosine-1-phosphate receptor 1 (S1P1) (Homo sapiens (Human)): hS1P1 B-arrestin2 pEC50 was <5

These data points were gathered from patent US11912693B2.
